Study target: PI3K-alpha (Homo sapiens)
Experimental details: PI3K-alpha fluorescence polarization assay
Type: biochemical
Condition parameters: read-out: PI3Kα Avg. IC50
pIC50: −log10 of the molar value.

- Compound: "CNC(=O)Nc1ccc2c(c1)C(=O)/C(=C/c1c(C)n(CCN3CCOCC3)c3ccc(OC)cc13)O2 [Compound 608]"
  Result operator: "="
  pIC50: 7.81
- Compound: "CNC(=O)Nc1ccc2c(c1)C(=O)/C(=C/c1c(-c3c(OC)cccc3OC)[nH]c3ccc(OC)cc13)O2 [Compound 637]"
  Result operator: "="
  pIC50: 8.66
- Compound: "Cn1cc(/C=C2\\Oc3cc(O)cc(O)c3C2=O)c2c(-c3ccsc3)cccc21 [Example 374]"
  Result operator: "="
  pIC50: 5.58
- Compound: "COc1cccc2c1O/C(=C\\c1cn(Cc3ccccc3)c3ccccc13)C2=O [Example 42]"
  Result operator: "<"
  pIC50: 5.00
- Compound: "COc1ccc(-c2cccc3c2c(/C=C2\\Oc4cc(O)cc(O)c4C2=O)cn3C)cn1 [Example 369]"
  Result operator: "="
  pIC50: 5.98
- Compound: "COc1ccc2[nH]cc(/C=C3\\Oc4ccc(C#N)cc4C3=O)c2c1 [Compound 523]"
  Result operator: "<"
  pIC50: 5.00
- Compound: "CNCCNC(=O)Nc1ccc2c(c1)C(=O)/C(=C/c1cn(CCN3CCN(C)CC3)c3ccc(OC)cc13)O2 [Compound 563]"
  Result operator: "="
  pIC50: 7.45
- Compound: "COc1ccc2c(c1)c(/C=C1\\Oc3cc(O)cc(O)c3C1=O)c(C1CC1)n2CCn1ccnc1 [Example 334]"
  Result operator: "="
  pIC50: 8.89

---

Recorded IC50 for the following compounds
Study target: PI3K-alpha (Homo sapiens, UniProt P42336)
Sequence (P42336 whole entry, species assumed): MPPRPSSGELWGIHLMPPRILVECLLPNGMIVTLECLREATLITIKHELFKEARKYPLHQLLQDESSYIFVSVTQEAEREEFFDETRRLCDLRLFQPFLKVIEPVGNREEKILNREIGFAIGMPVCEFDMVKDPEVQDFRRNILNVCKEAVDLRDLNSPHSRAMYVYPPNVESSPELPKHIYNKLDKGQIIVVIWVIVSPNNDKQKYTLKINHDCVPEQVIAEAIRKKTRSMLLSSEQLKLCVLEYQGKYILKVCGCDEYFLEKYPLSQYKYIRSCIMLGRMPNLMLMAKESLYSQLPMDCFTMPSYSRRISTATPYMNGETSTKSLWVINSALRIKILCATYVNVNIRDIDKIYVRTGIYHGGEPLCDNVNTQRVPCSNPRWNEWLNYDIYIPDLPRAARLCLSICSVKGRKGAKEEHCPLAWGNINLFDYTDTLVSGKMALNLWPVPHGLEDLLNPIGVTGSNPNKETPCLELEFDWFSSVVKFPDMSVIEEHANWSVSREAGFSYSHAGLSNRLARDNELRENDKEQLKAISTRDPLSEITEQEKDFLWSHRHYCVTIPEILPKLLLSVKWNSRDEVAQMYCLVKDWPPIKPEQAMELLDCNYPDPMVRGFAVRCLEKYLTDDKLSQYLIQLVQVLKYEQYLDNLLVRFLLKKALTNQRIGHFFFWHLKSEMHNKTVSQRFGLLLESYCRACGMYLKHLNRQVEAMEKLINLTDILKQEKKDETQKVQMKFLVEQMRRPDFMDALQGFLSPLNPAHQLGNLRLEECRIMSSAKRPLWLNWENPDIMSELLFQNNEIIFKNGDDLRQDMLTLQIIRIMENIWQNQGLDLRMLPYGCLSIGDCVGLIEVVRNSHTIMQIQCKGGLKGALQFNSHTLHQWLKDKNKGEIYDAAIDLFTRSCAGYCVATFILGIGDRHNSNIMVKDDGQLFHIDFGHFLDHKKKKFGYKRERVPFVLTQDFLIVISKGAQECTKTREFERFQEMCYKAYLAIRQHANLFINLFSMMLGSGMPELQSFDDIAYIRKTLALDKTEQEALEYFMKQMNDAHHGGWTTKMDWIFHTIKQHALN
Sequence (P27986 whole entry partner, species assumed): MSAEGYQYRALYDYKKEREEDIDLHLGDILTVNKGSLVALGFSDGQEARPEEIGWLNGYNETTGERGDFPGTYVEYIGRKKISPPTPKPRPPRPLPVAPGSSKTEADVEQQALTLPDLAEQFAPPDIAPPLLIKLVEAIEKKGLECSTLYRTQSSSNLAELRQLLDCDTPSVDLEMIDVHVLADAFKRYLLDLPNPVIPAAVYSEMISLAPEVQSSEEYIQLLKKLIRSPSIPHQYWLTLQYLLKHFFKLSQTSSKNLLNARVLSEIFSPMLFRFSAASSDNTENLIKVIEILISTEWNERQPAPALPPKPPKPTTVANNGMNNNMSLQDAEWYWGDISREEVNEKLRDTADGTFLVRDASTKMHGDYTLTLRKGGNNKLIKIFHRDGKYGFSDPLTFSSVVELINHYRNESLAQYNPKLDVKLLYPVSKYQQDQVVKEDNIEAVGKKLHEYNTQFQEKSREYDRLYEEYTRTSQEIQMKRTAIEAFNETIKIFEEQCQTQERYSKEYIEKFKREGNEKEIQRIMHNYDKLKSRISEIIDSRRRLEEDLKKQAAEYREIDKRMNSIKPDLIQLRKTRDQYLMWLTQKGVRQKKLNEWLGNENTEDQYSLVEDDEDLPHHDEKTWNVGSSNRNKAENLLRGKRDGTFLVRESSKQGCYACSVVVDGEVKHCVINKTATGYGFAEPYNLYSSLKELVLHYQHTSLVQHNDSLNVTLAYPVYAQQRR
Experimental details: PI3K-alpha fluorescence polarization assay
Format: biochemical
Condition parameters: read-out: PI3Kα Avg. IC50

- Line notation: "O=C1C(=Cc2c[nH]c3cc(F)ccc23)Oc2cc(O)cc(O)c21"
  Units text: "nM"
  IC50: 1550
- Line notation: "COc1ccc2c(c1)c(/C=C1\\Oc3cc(O)cc(O)c3C1=O)c(C1CCCC1)n2CCN1CCN(C)CC1"
  Units text: "nM"
  IC50: 3
- Line notation: "CCn1c(C)c(/C=C2\\Oc3ccc(NC(=O)Nc4ccc(CCN(C)C)cc4)cc3C2=O)c2cc(OC)ccc21"
  Units text: "nM"
  IC50: 3.5
- Line notation: "Cn1c(-c2cccc(O)c2)c(C=C2Oc3cc(O)cc(O)c3C2=O)c2ccccc21"
  Units text: "nM"
  IC50: 2420
- Line notation: "Cn1cc(/C=C2\\Oc3cc(O)cc(O)c3C2=O)c2c(-c3ccccc3N)cccc21"
  Units text: "nM"
  IC50: 1070

---

Study target: PI3K-gamma (Homo sapiens)
Sequence (P48736 whole entry, species assumed): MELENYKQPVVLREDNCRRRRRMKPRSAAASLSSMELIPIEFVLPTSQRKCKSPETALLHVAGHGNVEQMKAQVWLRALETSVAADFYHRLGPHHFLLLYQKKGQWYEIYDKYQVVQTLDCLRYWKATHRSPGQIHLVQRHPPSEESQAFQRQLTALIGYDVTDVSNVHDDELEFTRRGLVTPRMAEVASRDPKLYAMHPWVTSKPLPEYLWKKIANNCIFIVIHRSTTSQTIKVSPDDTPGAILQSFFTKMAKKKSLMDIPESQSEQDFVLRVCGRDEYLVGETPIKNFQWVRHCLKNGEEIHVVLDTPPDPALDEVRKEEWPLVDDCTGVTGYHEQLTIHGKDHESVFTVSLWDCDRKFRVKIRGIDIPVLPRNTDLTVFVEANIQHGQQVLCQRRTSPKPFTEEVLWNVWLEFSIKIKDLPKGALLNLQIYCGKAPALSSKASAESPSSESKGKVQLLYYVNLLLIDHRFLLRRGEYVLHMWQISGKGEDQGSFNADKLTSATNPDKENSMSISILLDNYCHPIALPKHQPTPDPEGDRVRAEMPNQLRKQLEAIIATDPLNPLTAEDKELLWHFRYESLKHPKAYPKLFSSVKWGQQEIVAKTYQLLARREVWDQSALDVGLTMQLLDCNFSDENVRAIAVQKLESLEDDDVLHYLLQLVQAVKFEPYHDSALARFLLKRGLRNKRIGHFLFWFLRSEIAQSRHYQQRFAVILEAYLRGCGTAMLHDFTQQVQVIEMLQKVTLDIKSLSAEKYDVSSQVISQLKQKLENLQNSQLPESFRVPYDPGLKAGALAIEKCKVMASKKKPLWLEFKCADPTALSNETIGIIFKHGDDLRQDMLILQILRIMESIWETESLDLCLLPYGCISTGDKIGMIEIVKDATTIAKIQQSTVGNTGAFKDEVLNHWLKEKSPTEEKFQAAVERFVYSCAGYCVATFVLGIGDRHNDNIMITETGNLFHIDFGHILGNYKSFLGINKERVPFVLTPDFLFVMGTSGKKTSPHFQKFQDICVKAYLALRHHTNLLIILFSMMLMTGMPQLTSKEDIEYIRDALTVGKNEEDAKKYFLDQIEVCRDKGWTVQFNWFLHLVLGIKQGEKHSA
Experimental details: PI3K-gamma fluorescence polarization assay
Format: biochemical
Condition parameters: PI3Kγ Avg. IC50
Method: PI3K-Alpha, PI3K-Beta, PI3K-Gamma, and PI3K-delta Fluorescence Polarization Assay Protocols PI3-Kinase reactions were performed in 5 mM HEPES, pH 7, 2.5 mM MgCl2, and 25 μM ATP, with diC8-PI(4,5)P2 (Echelon, Salt Lake City Utah) as substrate. Nunc 384-well black polypropylene fluorescent plates were used for PI3K assays. […] Assay Plates were read on Perkin-Elmer Envision plate readers with appropriate filters for Tamra [BODIPY-TMRI(1,3,4,5)P4]. […]
Label Y when IC50 is strictly below 0.5 µM; otherwise label N.

- Compound: "CNC(=O)Nc1ccc2c(c1)C(=O)/C(=C/c1c(C(=O)N(C)C)[nH]c3ccc(OC)cc13)O2 [Compound 600]"
  Discrete label: "Y"
- Compound: "Cn1cc(/C=C2\\Oc3ccc(NC(=O)Nc4cccnc4)cc3C2=O)c2c(-c3ccccc3)cccc21 [Compound 535]"
  Discrete label: "N"
- Compound: "COc1ccc2c(c1)c(/C=C1\\Oc3c(ccc(O)c3Cl)C1=O)c(C)n2CCN1CCN(C)CC1 [Example 451]"
  Discrete label: "N"
- Compound: "CNC(=O)Nc1ccc2c(c1)C(=O)/C(=C/c1c(C)n(CCCN3CCCCC3)c3ccc(OC)cc13)O2 [Compound 588]"
  Discrete label: "N"
- Compound: "COc1cc(F)c2[nH]c(-c3c(C)nn(C)c3C)c(/C=C3\\Oc4ccc(NC(=O)Nc5ccc(C(=O)NCCN(C)C)cc5)cc4C3=O)c2c1 [Compound 733]"
  Discrete label: "Y"
- Compound: "COc1cc(F)c2[nH]c(-c3c(C)nn(C)c3C)c(/C=C3\\Oc4ccc(NC(=O)Nc5ccc(C(=O)N6CCN(C)C(C)C6)cc5)cc4C3=O)c2c1 (stereo not drawn) [Compound 730]"
  Discrete label: "Y"
- Compound: "CCn1c(C)c(/C=C2\\Oc3ccc(NC(=O)Nc4ccc(CCN(C)C)cc4)cc3C2=O)c2cc(OC)ccc21 [Compound 670]"
  Discrete label: "Y"
- Compound: "N#Cc1ccc2[nH]cc(C=C3Oc4cc(O)cc(O)c4C3=O)c2c1 [Example 182]"
  Discrete label: "N"
- Compound: "CNC(=O)Nc1ccc2c(c1)C(=O)/C(=C/c1c(-c3c(C)nn(C)c3C)n(CCN3CCNCC3)c3ccc(OC)cc13)O2 [Compound 656]"
  Discrete label: "Y"
- Compound: "O=C1C(=Cc2c[nH]c3cc(Br)ccc23)Oc2cc(O)cc(O)c21 [Example 143]"
  Discrete label: "N"
- Compound: "COc1ccc2c(c1)c(/C=C1\\Oc3cc(O)cc(C)c3C1=O)c(C)n2CCCN(C)C [Example 468]"
  Discrete label: "N"
- Compound: "O=C1/C(=C/c2c(-c3ccc4ccccc4c3)[nH]c3ccccc23)Oc2cc(O)cc(O)c21 [Example 45]"
  Discrete label: "N"
- Compound: "CNCCNC(=O)Nc1ccc2c(c1)C(=O)/C(=C/c1cn(CCN3CCN(C)CC3)c3ccc(OC)cc13)O2 [Compound 563]"
  Discrete label: "N"
- Compound: "Cn1cc(/C=C2\\Oc3cc(O)cc(O)c3C2=O)c2c(-c3ccsc3)cccc21 [Example 374]"
  Discrete label: "N"
- Compound: "COc1ccc2c(c1)c(C=C1Oc3c(ccc(O)c3O)C1=O)c(C)n2CCCCl [Example 124]"
  Discrete label: "N"
- Compound: "COc1ccc2c(c1)c(/C=C1\\Oc3cc(O)ccc3C1=O)c(C)n2CCCN1CCCC1C (stereo not drawn) [Example 461]"
  Discrete label: "N"
- Compound: "COc1ccc2[nH]cc(C=C3Oc4cc(O)cc(-c5ccccc5)c4C3=O)c2c1 [Compound 504]"
  Discrete label: "N"
- Compound: "COc1cc2c(C=C3Oc4cc(O)cc(O)c4C3=O)c(C)n(C)c2cc1C [Example 185]"
  Discrete label: "Y"
- Compound: "CNC(=O)Nc1ccc2c(c1)C(=O)/C(=C/c1c(-c3nn(C)cc3C(F)(F)F)[nH]c3ccc(OC)cc13)O2 [Compound 724]"
  Discrete label: "Y"
- Compound: "CNC(=O)Nc1ccc2c(c1)C(=O)/C(=C/c1c[nH]c3c(CN4CCN(C)CC4)cc(OC)cc13)O2 [Compound 571]"
  Discrete label: "N"
- Compound: "Cn1c(-c2ccsc2)c(C=C2Oc3cc(O)cc(O)c3C2=O)c2ccccc21 [Example 194]"
  Discrete label: "N"
- Compound: "CCn1cc(/C=C2\\Oc3ccc(NC(=O)Nc4ccc(C(=O)N(C)CCN(C)C)cc4)cc3C2=O)c2cc(OC)ccc21 [Compound 655]"
  Discrete label: "Y"
- Compound: "O=C1C(=Cc2c(-c3cccc(O)c3)[nH]c3ccccc23)Oc2cc(O)cc(O)c21 [Example 205]"
  Discrete label: "N"
- Compound: "Cn1c(-c2cccc(F)c2)c(C=C2Oc3cc(O)cc(O)c3C2=O)c2ccccc21 [Example 197]"
  Discrete label: "N"
- Compound: "O=C1/C(=C/c2c(-c3ccc(Cl)cc3)[nH]c3ccccc23)Oc2cc(O)cc(O)c21 [Example 44]"
  Discrete label: "N"
- Compound: "COc1ccc2c(c1)c(/C=C1\\Oc3cc(O)cc(O)c3C1=O)c(C(F)(F)F)n2CCN1CCN(C)CC1 [Example 336]"
  Discrete label: "Y"
- Compound: "COc1ccc2c(c1)c(C=C1Oc3cccc(O)c3C1=O)c(C)n2CCCCN1CCN(C)CC1 [Example 135]"
  Discrete label: "N"
- Compound: "CNC(=O)Nc1ccc2c(c1)C(=O)/C(=C/c1c(C(C)(C)C)[nH]c3ccc(OC)cc13)O2 [Compound 631]"
  Discrete label: "Y"
- Compound: "CNC(=O)Nc1ccc2c(c1)C(=O)/C(=C/c1c(-c3nc(C4CC4)no3)n(CCN3CCN(C)CC3)c3ccc(OC)cc13)O2 [Compound 626]"
  Discrete label: "Y"
- Compound: "Cn1cc(/C=C2\\Oc3cc(O)cc(O)c3C2=O)c2c(-c3ccc(C(N)=O)cc3)cccc21 [Example 377]"
  Discrete label: "N"
